molecular target: 5-lipoxygenase (Homo sapiens, UniProt P09917); construct: The human polymorphonuclear leucocytes metabolize the arachidonic acid to give 5-hydroxy-5,8,11,14-eicosatetraenoic acid (5-HETE) and leucotriene B4; endogenous in cells; host or cells: human PMN leucocytes from heparinized whole blood; assay: Inhibition of LTB4 synthesis in human PMN leucocytes (A 23 187 stimulated); type: cell-based; settings: 5 μg/ml
Sequence (P09917 whole entry): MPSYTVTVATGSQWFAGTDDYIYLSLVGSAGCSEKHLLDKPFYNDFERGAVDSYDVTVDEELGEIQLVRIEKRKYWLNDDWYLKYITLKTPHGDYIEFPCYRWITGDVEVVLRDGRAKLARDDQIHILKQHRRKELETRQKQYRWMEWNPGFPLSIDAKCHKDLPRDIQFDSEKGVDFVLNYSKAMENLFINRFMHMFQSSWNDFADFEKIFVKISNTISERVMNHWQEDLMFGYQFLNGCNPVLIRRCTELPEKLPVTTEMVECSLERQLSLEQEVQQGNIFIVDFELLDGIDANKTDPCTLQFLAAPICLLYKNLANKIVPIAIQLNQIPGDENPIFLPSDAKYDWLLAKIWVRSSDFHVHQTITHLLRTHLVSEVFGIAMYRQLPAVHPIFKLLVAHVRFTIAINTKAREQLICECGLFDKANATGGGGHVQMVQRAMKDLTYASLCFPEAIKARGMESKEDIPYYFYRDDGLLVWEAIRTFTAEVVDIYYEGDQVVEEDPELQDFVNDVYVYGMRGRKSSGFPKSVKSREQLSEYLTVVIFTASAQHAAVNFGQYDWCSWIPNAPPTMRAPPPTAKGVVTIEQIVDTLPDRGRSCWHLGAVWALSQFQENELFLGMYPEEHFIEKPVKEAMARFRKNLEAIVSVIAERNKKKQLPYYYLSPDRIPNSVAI
Measured Parameter: inhibition at 5 µg/mL (%)

Illustrative cases are given below, each with its answer.
Compound: CC1=NN(CCOc2ccccc2)C(=O)C1=O [Example 6]
Target Under Test: 5-lipoxygenase (Homo sapiens, UniProt P09917)
Measured Parameter: inhibition at 5 µg/mL
Endpoint Value: 100
--
Compound: O=C1C(=O)N(CCOc2ccc3ccccc3c2)N=C1CC1CCCCC1 [Example 8]
Target Under Test: 5-lipoxygenase (Homo sapiens, UniProt P09917)
Measured Parameter: inhibition at 5 µg/mL
Endpoint Value: 100

1: CCCC1=NN(CCOc2ccc3ccccc3c2)C(=O)C1=O [Example 10]
2: CC1=NN(C(C)C2CCCCC2)C(=O)C1=O (centres unmarked) [Example 11]
Sorting by inhibition at 5 µg/mL in descending order, would 1 or 2 appear first? I would appreciate it if you answered with the label of your choice.
1

----------
target: 5-lipoxygenase (Homo sapiens); construct: The human polymorphonuclear leucocytes metabolize the arachidonic acid to give 5-hydroxy-5,8,11,14-eicosatetraenoic acid (5-HETE) and leucotriene B4; endogenous in cells; host or cells: human PMN leucocytes from heparinized whole blood; assay: Inhibition of LTB4 synthesis in human PMN leucocytes (A 23 187 stimulated); type: cell-based; details: 1 μg/ml
Measured Parameter: inhibition at 1 µg/mL (%)

Illustrative cases are given below, each with its answer.
Compound: CC1=NN(C(C)c2cccc(C(F)(F)F)c2)C(=O)C1=O (stereo not shown) [Example 9]
inhibition at 1 µg/mL, %: 40
//
Compound: CC1=NN(C(C)c2ccc3c(c2)CCCC3)C(=O)C1=O (stereo not shown) [Example 7]
inhibition at 1 µg/mL, %: 21

1: CC1=NN(C(C)c2ccc(Cl)c(Cl)c2)C(=O)C1=O (stereo not shown) [Example 5]
2: COCC1=NN(CCOc2ccc3ccccc3c2)C(=O)C1=O [Example 4]
Sorting by inhibition at 1 µg/mL in descending order, would 1 or 2 appear first? I would appreciate it if you answered with the label of your choice.
2
